Overview of reported Population Mitotic Cells (%) across a group of molecules:
- Tested on: U2OS
- ASSAY EXPLANATION: Multiplex assay against U2OS
- Type: toxicity, cell-based
- STATED CONDITIONS: human, 12 h, 10 µM, compound concentration 10 uM, replicate 1
READOUT TYPE: Population Mitotic Cells (%)

- MOLECULE: "CN(C)C(=O)Cn1cc(-c2ccc(-c3cncc4ccccc34)cc2)cn1"
  NUMERIC VALUE: 33
- MOLECULE: "Cc1c(CC(=O)O)c2cccnc2n1Cc1ccc(S(C)(=O)=O)cc1C(F)(F)F [FEVIPIPRANT]"
  NUMERIC VALUE: 9
- MOLECULE: "CC(C)COc1ccc(CNC(=O)N(Cc2ccc(F)cc2)C2CCN(C)CC2)cc1 [PIMAVANSERIN]"
  NUMERIC VALUE: 32

====

- Tested on: HEK-293T
- ASSAY EXPLANATION: Multiplex assay against HEK293T
- Type: toxicity, cell-based
- STATED CONDITIONS: human, 48 h, 10 µM, compound concentration 10 uM, replicate 1
The label depends only on Population Normal (%): condition met if it is at least 90%, condition not met if it is smaller.

- COMPOUND: "Br.CS(=O)(=O)Nc1c(O)ccc2c1CCCC2C1=NCCN1 (centres undefined)"
  ANSWER LABEL: "condition met"
- COMPOUND: "COc1ccccc1N1CCN(C[C@@H](C(=O)NC(C)(C)C)c2ccccc2)CC1.Cl.Cl"
  ANSWER LABEL: "condition met"
- COMPOUND: "Cc1sc2c(c1C)C(c1ccc(Cl)cc1)=N[C@@H](CC(=O)NCCCCCCCCNC(=O)COc1cccc3c1C(=O)N(C1CCC(=O)NC1=O)C3=O)c1nnc(C)n1-2 (some centres undefined)"
  ANSWER LABEL: "condition not met"
- COMPOUND: "Cc1cnc(-c2cc(N3CCN(C(=O)CCS(C)(=O)=O)CC3)ncc2Cl)c(C)c1"
  ANSWER LABEL: "condition met"
- COMPOUND: "Cl.NCCc1ccc(O)c(O)c1 [DOPAMINE HYDROCHLORIDE]"
  ANSWER LABEL: "condition met"
- COMPOUND: "NCCc1cn(S(=O)(=O)c2c(Cl)nc3sccn23)c2ccccc12.O=C(O)C(=O)O"
  ANSWER LABEL: "condition not met"
- COMPOUND: "Cc1cccc(NC(=O)CN2CCC(c3ccccn3)CC2)c1.Cl.Cl"
  ANSWER LABEL: "condition met"
- COMPOUND: "CCCCCC(O)/C=C/[C@H]1C(=O)CC(O)C1C/C=C\\CCCC(=O)O (some centres undefined)"
  ANSWER LABEL: "condition met"
- COMPOUND: "N#Cc1c(Oc2cccc(OS(=O)(=O)CCCC(F)(F)F)c2)cccc1C(F)(F)F"
  ANSWER LABEL: "condition met"
- COMPOUND: "CN1CCN(c2cc(-c3ccccc3)nc(N)n2)CC1"
  ANSWER LABEL: "condition met"
- COMPOUND: "Cl.N=C(N)NC(=O)Cc1c(Cl)cccc1Cl [GUANFACINE HYDROCHLORIDE]"
  ANSWER LABEL: "condition met"
- COMPOUND: "Cc1c(CC(=O)O)c2cccnc2n1Cc1ccc(S(C)(=O)=O)cc1C(F)(F)F"
  ANSWER LABEL: "condition met"
- COMPOUND: "CC(=O)Nc1cccc2c1c(Sc1ccc(Cl)cc1)c(C)n2CC(=O)O"
  ANSWER LABEL: "condition met"
- COMPOUND: "COc1cccc2c1c(NS(=O)(=O)c1ccc(Cl)s1)nn2Cc1cccc(CNC(=O)C(C)(C)O)c1"
  ANSWER LABEL: "condition met"
- COMPOUND: "CCCCC(=O)N(Cc1ccc(-c2ccccc2-c2nnn[nH]2)cc1)[C@H](C(=O)O)C(C)C"
  ANSWER LABEL: "condition met"
- COMPOUND: "CC(C)COc1ccc(CNC(=O)N(Cc2ccc(F)cc2)C2CCN(C)CC2)cc1"
  ANSWER LABEL: "condition not met"
- COMPOUND: "CC(/C=C1\\SC(=S)N(CCCC(=O)Nc2ccc(C(=O)O)c(O)c2)C1=O)=C\\c1ccccc1"
  ANSWER LABEL: "condition met"
- COMPOUND: "O=C(CCCc1ccccc1)Nc1nc2ccccc2c(=O)s1"
  ANSWER LABEL: "condition met"
- COMPOUND: "COC[C@@H](c1ccc(C(F)(F)F)cc1)N1CCN(C2(C)CCN(C(=O)c3c(C)ncnc3C)CC2)C[C@@H]1C.O=C(O)/C=C\\C(=O)O [VICRIVIROC MALEATE]"
  ANSWER LABEL: "condition met"

====

- System: U2OS
- ASSAY EXPLANATION: Multiplex assay against U2OS
- Type: toxicity, cell-based
- STATED CONDITIONS: human, 12 h, 10 µM, compound concentration 10 uM, replicate 2
Reported Population Hoechst High Intensity Objects (%) by item:
READOUT TYPE: Population Hoechst High Intensity Objects (%)

- GIVEN SMILES: "N#Cc1c(Oc2cccc(OS(=O)(=O)CCCC(F)(F)F)c2)cccc1C(F)(F)F"
  NUMERIC VALUE: 0
- GIVEN SMILES: "CN1CCN(c2cc(-c3ccccc3)nc(N)n2)CC1"
  NUMERIC VALUE: 1
- GIVEN SMILES: "Cc1cccc(NC(=O)CN2CCC(c3ccccn3)CC2)c1.Cl.Cl"
  NUMERIC VALUE: 1
- GIVEN SMILES: "COc1cccc2c1c(NS(=O)(=O)c1ccc(Cl)s1)nn2Cc1cccc(CNC(=O)C(C)(C)O)c1"
  NUMERIC VALUE: 5
- GIVEN SMILES: "CC(C)COc1ccc(CNC(=O)N(Cc2ccc(F)cc2)C2CCN(C)CC2)cc1"
  NUMERIC VALUE: 4
- GIVEN SMILES: "Cc1onc(-c2ccccc2Cl)c1C(=O)N(C)c1ccc(Cl)cc1"
  NUMERIC VALUE: 0
- GIVEN SMILES: "CN[C@@H](C)C(=O)N[C@H](C(=O)N1CCC[C@H]1C(=O)Nc1snnc1-c1ccccc1)C1CCCCC1"
  NUMERIC VALUE: 5
- GIVEN SMILES: "CCCOc1ccc2[nH]cc(C3=CCNCC3)c2n1.Cl"
  NUMERIC VALUE: 0

====

- System: Fibroblast
- ASSAY EXPLANATION: Multiplex assay against human fibroblast
- Type: toxicity, cell-based
- STATED CONDITIONS: 48 h, 10 µM, compound concentration 10 uM, replicate 2

- GIVEN SMILES: "Cc1cccc(NC(=O)CN2CCC(c3ccccn3)CC2)c1.Cl.Cl"
  Population Mitotic Cells (%): "71%"
- GIVEN SMILES: "COc1cccc2c1c(NS(=O)(=O)c1ccc(Cl)s1)nn2Cc1cccc(CNC(=O)C(C)(C)O)c1"
  Population Mitotic Cells (%): "48%"
- GIVEN SMILES: "CN(C)C(=O)Cn1cc(-c2ccc(-c3cncc4ccccc34)cc2)cn1"
  Population Mitotic Cells (%): "87%"

====

Population Mitotic Cells (%): recorded values
- Tested on: HEK-293T
- ASSAY EXPLANATION: Multiplex assay against HEK293T
- Format: toxicity, cell-based
- STATED CONDITIONS: human, 48 h, 10 µM, compound concentration 10 uM, replicate 2

- MOLECULE: "C[C@H](N)COC(=O)[C@@H](CCCCN)NC(=O)Cc1c(-c2ccc3ccccc3c2)[nH]c2c1ccc1ccccc12"
  Population Mitotic Cells (%): 67
- MOLECULE: "Cc1onc(-c2ccccc2Cl)c1C(=O)N(C)c1ccc(Cl)cc1"
  Population Mitotic Cells (%): 79
- MOLECULE: "CC[C@@H](C)Nc1nc(C)nc2c(-c3ccc(OC)nc3C)c(C)nn12"
  Population Mitotic Cells (%): 60
- MOLECULE: "CC(/C=C1\\SC(=S)N(CCCC(=O)Nc2ccc(C(=O)O)c(O)c2)C1=O)=C\\c1ccccc1"
  Population Mitotic Cells (%): 60
- MOLECULE: "N#Cc1cc(F)cc(-c2nc(-c3ccc(F)cn3)no2)c1"
  Population Mitotic Cells (%): 51
- MOLECULE: "COc1cccc2c1c(NS(=O)(=O)c1ccc(Cl)s1)nn2Cc1cccc(CNC(=O)C(C)(C)O)c1"
  Population Mitotic Cells (%): 65
- MOLECULE: "CC(C)COc1ccc(CNC(=O)N(Cc2ccc(F)cc2)C2CCN(C)CC2)cc1"
  Population Mitotic Cells (%): 38
- MOLECULE: "Cl.N=C(N)NC(=O)Cc1c(Cl)cccc1Cl [GUANFACINE HYDROCHLORIDE]"
  Population Mitotic Cells (%): 50
- MOLECULE: "O=C1[C@H](Cc2ccc(O)cc2)N2C(=O)CCN(C(=O)NCc3ccccc3)[C@H]2CN1Cc1cccc2ccccc12"
  Population Mitotic Cells (%): 42
- MOLECULE: "O=C(CCCc1ccccc1)Nc1nc2ccccc2c(=O)s1"
  Population Mitotic Cells (%): 31
- MOLECULE: "CC(=O)Nc1cccc2c1c(Sc1ccc(Cl)cc1)c(C)n2CC(=O)O"
  Population Mitotic Cells (%): 66
